Data origin, for the record: patent US20060258729A1

Tested on: S. aureus Smith strain
Assay: Inhibition of bacterial growth (MIC), Sm
Assay type: cell-based, Staphylococcus aureus
Details: 16 to 18 hours, 37° C.
Protocol: Each compound was assayed against a panel of a strain of Bacillus subtilis, of strains of antibiotic-resistant and sensitive Enterococcus and Staphylococcus species, and of a strain of the Gram-negative bacterium Escherichia coli. Compounds were dissolved in DMSO at 100× the desired highest concentration and added to one well of a 96-well microassay plate. […] Cell growth was determined by measuring optical density (570 nm, 1 cm path length) in a microplate reader. […]
# Minimum Inhibitory Concentration for Bacterial Growth, Sm annotations
experimentalEndpoint: Minimum Inhibitory Concentration for Bacterial Growth, Sm

compound: Cc1ccc(C=NNC(=O)c2cc(-c3ccccc3)n[nH]2)cc1 [Compound 11]
endpointResult: >80 µg/mL

compound: COc1cccc(-c2cc(C(=O)NN=Cc3cccc(O)c3)[nH]n2)c1 [Compound 10]
endpointResult: >80 µg/mL

compound: COc1cccc(-c2cc(C(=O)NN=Cc3ccc(O)cc3)[nH]n2)c1 [Compound 14]
endpointResult: 80 µg/mL

compound: COc1cccc(C=NNC(=O)c2cc(-c3ccc(C)cc3)n[nH]2)c1O [Compound 8]
endpointResult: >80 µg/mL

compound: COc1ccc(C=NNC(=O)c2cc(-c3ccc(Cl)cc3)n[nH]2)cc1OC [Compound 15]
endpointResult: >80 µg/mL

compound: CCOc1cccc(-c2cc(C(=O)NN=Cc3cccc(OC)c3O)[nH]n2)c1 [Compound 7]
endpointResult: 40 µg/mL

compound: O=C(NN=Cc1ccccc1O)c1cc(-c2ccccc2)n[nH]1 [Compound 9]
endpointResult: >80 µg/mL

----------
Parameter: MIC. Scope: all listed entries.
System: vancomycin-resistant Enterococcus strain B42762
Experiment: Inhibition of bacterial growth (MIC), VRE
Type: cell-based
Settings: VRE, 16 to 18 hours, 37° C., read-out: Minimum Inhibitory Concentration for Bacterial Growth, VRE
experimentalEndpoint: MIC

compoundSmiles: COc1cccc(-c2cc(C(=O)NN=Cc3ccc(OC)c(OC)c3)[nH]n2)c1
subjectOfTest: vancomycin-resistant Enterococcus strain B42762
experimentalEndpoint: MIC
endpointResult: 40 µg/mL
//
compoundSmiles: COc1cc(C=NNC(=O)c2cc(-c3ccccc3)n[nH]2)ccc1O
subjectOfTest: vancomycin-resistant Enterococcus strain B42762
experimentalEndpoint: MIC
endpointResult: 40 µg/mL
//
compoundSmiles: COc1ccc(-c2cc(C(=O)NN=Cc3ccc(O)cc3)[nH]n2)cc1
subjectOfTest: vancomycin-resistant Enterococcus strain B42762
experimentalEndpoint: MIC
endpointResult: 80 µg/mL
//
compoundSmiles: CCOc1cc(C=NNC(=O)c2cc(-c3cccc(OC)c3)n[nH]2)ccc1O
subjectOfTest: vancomycin-resistant Enterococcus strain B42762
experimentalEndpoint: MIC
endpointResult: 40 µg/mL
//
compoundSmiles: COc1ccc(-c2cc(C(=O)NN=Cc3ccc(OC)c(OC)c3)[nH]n2)cc1
subjectOfTest: vancomycin-resistant Enterococcus strain B42762
experimentalEndpoint: MIC
endpointResult: 20 µg/mL
//
compoundSmiles: COc1cc(C=NNC(=O)c2cc(-c3ccccc3)n[nH]2)cc(OC)c1OC
subjectOfTest: vancomycin-resistant Enterococcus strain B42762
experimentalEndpoint: MIC
endpointResult: 20 µg/mL
//
compoundSmiles: COc1ccc(-c2cc(C(=O)NN=Cc3cc(OC)c(OC)c(OC)c3)[nH]n2)cc1
subjectOfTest: vancomycin-resistant Enterococcus strain B42762
experimentalEndpoint: MIC
endpointResult: 5 µg/mL
//
compoundSmiles: CCOc1ccc(-c2cc(C(=O)NN=Cc3ccc(O)c(OC)c3)[nH]n2)cc1
subjectOfTest: vancomycin-resistant Enterococcus strain B42762
experimentalEndpoint: MIC
endpointResult: 10 µg/mL
//
compoundSmiles: O=C(NN=Cc1ccc(O)cc1O)c1cc(-c2ccccc2)n[nH]1
subjectOfTest: vancomycin-resistant Enterococcus strain B42762
experimentalEndpoint: MIC
endpointResult: > 80 µg/mL
